Experimental target: AMP-activated protein kinase (AMPK) alpha-1/beta-1/gamma-1 (Homo sapiens, UniProt P54619+Q13131+Q9Y478)
Sequence (P54619 whole entry): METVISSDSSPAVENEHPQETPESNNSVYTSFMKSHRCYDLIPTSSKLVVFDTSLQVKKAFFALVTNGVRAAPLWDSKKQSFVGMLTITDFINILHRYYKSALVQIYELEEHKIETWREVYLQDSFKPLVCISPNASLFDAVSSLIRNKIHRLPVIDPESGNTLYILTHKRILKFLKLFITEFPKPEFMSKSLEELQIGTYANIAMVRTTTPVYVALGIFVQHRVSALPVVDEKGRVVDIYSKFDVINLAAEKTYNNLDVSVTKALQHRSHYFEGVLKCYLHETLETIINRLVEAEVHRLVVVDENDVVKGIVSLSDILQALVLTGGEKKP
Sequence (Q9Y478 whole entry): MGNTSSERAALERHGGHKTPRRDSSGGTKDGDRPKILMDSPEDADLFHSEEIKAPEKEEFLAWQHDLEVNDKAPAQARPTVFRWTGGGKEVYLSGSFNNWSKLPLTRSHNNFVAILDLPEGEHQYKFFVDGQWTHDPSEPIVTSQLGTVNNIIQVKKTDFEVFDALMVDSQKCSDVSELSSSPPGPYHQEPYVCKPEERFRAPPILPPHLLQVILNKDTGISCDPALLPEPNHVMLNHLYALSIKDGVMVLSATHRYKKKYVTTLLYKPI
Sequence (Q13131 whole entry): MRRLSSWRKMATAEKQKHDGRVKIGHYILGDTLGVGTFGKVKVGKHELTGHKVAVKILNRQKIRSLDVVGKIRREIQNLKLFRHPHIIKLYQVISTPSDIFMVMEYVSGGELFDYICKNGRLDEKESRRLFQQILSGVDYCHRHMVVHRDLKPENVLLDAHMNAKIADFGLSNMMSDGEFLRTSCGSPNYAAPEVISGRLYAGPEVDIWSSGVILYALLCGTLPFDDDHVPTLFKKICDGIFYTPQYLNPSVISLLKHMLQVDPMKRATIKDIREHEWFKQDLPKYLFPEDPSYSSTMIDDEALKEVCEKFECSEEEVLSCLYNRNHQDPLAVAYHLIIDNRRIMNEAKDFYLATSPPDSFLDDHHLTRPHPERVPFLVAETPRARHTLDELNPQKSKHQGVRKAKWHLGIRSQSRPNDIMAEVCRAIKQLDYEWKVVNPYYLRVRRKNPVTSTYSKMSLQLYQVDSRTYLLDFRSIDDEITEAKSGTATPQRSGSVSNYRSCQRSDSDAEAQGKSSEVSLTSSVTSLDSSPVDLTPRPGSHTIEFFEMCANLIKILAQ
Measurement notes: Activation of full length human recombinant AMPK alpha1/beta1/gamma1 expressed in baculovirus infected sf21 cells using SAMS peptide substrate after 30 mins in presence of [33P]ATP by TopCount analysis
Readout kind: pEC50
// pEC50: -log10(molar conc.)

Req: For Cc1ccc(Oc2nc3cc(-c4ccc(N5CCOCC5)cc4)c(Cl)cc3[nH]2)cc1P(=O)(O)O , write its pEC50.
Resp: 8.92

###

Experimental target: AMPK alpha2/beta2/gamma3 (Homo sapiens, UniProt O43741+P54646+Q9UGI9)
Sequence (P54646 whole entry, the tested form may be a part): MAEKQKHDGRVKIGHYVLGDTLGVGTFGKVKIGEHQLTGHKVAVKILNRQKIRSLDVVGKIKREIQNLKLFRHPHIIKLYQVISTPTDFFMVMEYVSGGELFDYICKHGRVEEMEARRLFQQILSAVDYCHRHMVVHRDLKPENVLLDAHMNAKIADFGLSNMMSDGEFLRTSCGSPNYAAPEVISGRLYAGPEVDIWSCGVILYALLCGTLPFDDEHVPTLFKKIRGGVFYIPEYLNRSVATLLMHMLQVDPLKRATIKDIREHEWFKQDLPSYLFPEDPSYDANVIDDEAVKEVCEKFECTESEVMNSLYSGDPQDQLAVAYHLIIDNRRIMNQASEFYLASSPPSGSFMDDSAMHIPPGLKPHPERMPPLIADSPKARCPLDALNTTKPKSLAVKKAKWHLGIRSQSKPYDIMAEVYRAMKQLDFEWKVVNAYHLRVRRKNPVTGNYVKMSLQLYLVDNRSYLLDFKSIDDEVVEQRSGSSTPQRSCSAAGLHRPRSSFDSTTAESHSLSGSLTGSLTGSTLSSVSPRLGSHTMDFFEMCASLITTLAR
Sequence (O43741 whole entry, the tested form may be a part): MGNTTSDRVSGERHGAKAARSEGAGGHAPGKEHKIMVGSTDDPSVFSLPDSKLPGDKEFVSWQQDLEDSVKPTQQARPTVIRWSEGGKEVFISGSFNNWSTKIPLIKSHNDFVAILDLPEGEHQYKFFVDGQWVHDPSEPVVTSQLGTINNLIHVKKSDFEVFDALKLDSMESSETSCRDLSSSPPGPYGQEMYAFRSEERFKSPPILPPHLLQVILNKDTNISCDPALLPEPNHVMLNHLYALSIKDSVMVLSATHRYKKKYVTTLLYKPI
Sequence (Q9UGI9 whole entry, the tested form may be a part): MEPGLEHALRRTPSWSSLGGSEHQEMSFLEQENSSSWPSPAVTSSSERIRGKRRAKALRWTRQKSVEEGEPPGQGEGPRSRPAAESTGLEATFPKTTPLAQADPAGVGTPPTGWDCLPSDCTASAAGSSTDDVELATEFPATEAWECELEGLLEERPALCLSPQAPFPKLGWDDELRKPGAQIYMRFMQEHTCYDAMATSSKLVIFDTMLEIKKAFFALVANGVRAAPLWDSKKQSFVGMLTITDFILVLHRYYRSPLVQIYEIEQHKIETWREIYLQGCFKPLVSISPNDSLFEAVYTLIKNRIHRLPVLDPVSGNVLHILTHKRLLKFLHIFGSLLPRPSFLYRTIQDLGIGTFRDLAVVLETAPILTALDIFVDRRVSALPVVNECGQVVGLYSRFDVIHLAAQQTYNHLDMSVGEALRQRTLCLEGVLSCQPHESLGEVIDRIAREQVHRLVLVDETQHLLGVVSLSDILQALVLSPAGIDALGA
Measurement notes: Activation of human recombinant AMPK alpha2/beta2/gamma3 expressed in African green monkey COS7 cells assessed as increase in biotinylated […] (1 to 120 residues) peptide phosphorylation at Ser-79 residue measured after 60 mins by Alphascreen assay
Readout kind: EC50

Req: Please indicate EC50 recorded for Oc1cccc(O)c1-c1ccc(-c2cc3nc(O[C@@H]4CO[C@H]5[C@@H]4OC[C@H]5O)[nH]c3cc2Cl)cc1
Resp: 4 nM

Reference for the values: ChEMBL document CHEMBL3856285
